Molecular target: Human VAP-1 enzyme (Homo sapiens)
Construct: purchased R&D Systems, Inc
Sequence (Q16853 1-763): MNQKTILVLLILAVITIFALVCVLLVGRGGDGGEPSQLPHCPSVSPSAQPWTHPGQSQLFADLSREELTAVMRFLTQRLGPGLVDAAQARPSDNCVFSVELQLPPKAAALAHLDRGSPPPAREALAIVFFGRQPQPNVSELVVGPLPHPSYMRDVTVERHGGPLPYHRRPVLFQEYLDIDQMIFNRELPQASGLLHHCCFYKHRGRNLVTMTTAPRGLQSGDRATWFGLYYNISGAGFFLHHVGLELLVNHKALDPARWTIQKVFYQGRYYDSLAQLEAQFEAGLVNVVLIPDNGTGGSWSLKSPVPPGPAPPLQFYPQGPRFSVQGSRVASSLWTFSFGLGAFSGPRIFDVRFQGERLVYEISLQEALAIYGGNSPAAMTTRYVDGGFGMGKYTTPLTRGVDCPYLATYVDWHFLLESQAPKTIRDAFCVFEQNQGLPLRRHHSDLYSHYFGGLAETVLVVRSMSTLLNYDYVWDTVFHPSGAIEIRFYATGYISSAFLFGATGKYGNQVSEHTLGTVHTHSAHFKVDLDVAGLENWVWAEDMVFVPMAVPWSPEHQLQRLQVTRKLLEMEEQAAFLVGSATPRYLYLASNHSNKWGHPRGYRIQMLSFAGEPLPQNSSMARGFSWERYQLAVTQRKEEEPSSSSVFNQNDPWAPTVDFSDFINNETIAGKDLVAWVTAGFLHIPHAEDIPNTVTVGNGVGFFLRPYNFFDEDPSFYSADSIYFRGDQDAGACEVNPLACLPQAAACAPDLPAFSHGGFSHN
Assay: Human VAP-1 enzyme inhibition test
Type: biochemical
Conditions: 1 h; compound 30 nM; 14C-benzylamine 100 μM; read-out: inhibition ratio (human VAP-1 enzyme)
READOUT NAME: inhibition at 0.03 µM

Solved cases (3 shown):
query: I'm curious: which inhibition at 0.03 µM was measured for COc1ccc(CON=C2CN(c3ncc(-c4cccc(COC(=O)NC(=N)N)c4F)cn3)C2)cc1 [Example 136] tested on Human VAP-1 enzyme (Homo sapiens)?
result: ≥ 50%

query: I'm curious: which inhibition at 0.03 µM was measured for CS(=O)(=O)CCON=C1CCN(c2ncc(-c3cccc(COC(=O)NC(=N)N)c3F)cn2)CC1 [Example 167] tested on Human VAP-1 enzyme (Homo sapiens)?
result: ≥ 50%

query: I'm curious: which inhibition at 0.03 µM was measured for CS(=O)(=O)NCCON=C1CCN(c2ncc(-c3cccc(COC(=O)NC(=N)N)c3F)cn2)CC1 [Example 159] tested on Human VAP-1 enzyme (Homo sapiens)?
result: ≥ 50%

API: the following record is the query input.
query: I'm curious: which inhibition at 0.03 µM was measured for N=C(N)NC(=O)OCc1cccc(-c2cnc(N3CCC(=NOCCO)CC3)nc2)c1F [Example 85] tested on Human VAP-1 enzyme (Homo sapiens)?
result: ≥ 50%
